- Target Of Assay: T1, apical domain of human CD71 (human, UniProt P02786 189-383, limits assumed)
- T1 construct: domain: apical domain; the panning antigen was 30% biotinylated; also called human apical domain of CD71
- T1 sequence (P02786 189-383 limits assumed): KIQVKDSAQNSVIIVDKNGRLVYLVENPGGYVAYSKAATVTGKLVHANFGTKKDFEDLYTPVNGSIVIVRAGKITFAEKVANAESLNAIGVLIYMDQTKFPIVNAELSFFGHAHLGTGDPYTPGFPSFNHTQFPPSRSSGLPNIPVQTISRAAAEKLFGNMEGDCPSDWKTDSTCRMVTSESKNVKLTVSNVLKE
- Experimental Details: primary ELISA; signal on apical domain over signal on HSA
Consider the following binders and their measured Apical domain:HSA readings.
Respond with the bare value in ratio.

The examples below pair each entry with its known result.
>  <Binder>
CD71-binding FN3 domain of SEQ ID NO: 116 (designed binder, Screen 1 hit, tested from colonies in the primary ELISA; not shown: C-terminal poly-histidine tag added to each FN3 domain) MLPAPKNLVVSRVTEDSARLSWTAPDAAFDSFYIAYAEPRPDGEAILLLVPGSERSYDLTGLKPGTEYSVLIHGVKGGLLSSPLIAGFTT

>  <Measurement Name>
Apical domain:HSA

>  <Measurement>
2200

$$$$
>  <Binder>
CD71-binding FN3 domain of SEQ ID NO: 110 (designed binder, Screen 1 hit, tested from colonies in the primary ELISA; not shown: C-terminal poly-histidine tag added to each FN3 domain) MLPAPKNLVVSRVTEDSARLSWTAPDAAFDSFHIVYHEPRPSGEAIYLEVPGSERSYDLTGLKPGTEYEVGIVSVKGGDLSVPLRAHFTT

>  <Measurement Name>
Apical domain:HSA

>  <Measurement>
2400

$$$$
>  <Binder>
CD71-binding FN3 domain of SEQ ID NO: 102 (designed binder, Screen 1 hit, tested from colonies in the primary ELISA; not shown: C-terminal poly-histidine tag added to each FN3 domain) MLPAPKNLVVSRVTEDSARLSWTAPDAAFDSFDIGYTEYGGYGEAIILQVPGSERSYDLTGLKPGTEYWVLIQGVKGGGSSVPLVAYFTT

>  <Measurement Name>
Apical domain:HSA

>  <Measurement>
1290

$$$$

Now look at this one.
Apical domain:HSA for CD71-binding FN3 domain of SEQ ID NO: 105 (designed binder, Screen 1 hit, tested from colonies in the primary ELISA; not shown: C-terminal poly-histidine tag added to each FN3 domain) MLPAPKNLVVSRVTEDSARLSWTAPDAAFDSFHIVYHEPRPSGEAIWLWVPGSERSYDLTGLKPGTEYEVGIVSVKGGDLSVPLSAIFTT is 1280
